Source listed as patent US20100056508A1.

Can you tell me IC50 for the items I'm about to list?
Experimental System: recombinant human adrenergic beta 1 receptors (Homo sapiens, UniProt P08588)
Construct: purchased Euroscreen
Sequence (P08588 whole entry): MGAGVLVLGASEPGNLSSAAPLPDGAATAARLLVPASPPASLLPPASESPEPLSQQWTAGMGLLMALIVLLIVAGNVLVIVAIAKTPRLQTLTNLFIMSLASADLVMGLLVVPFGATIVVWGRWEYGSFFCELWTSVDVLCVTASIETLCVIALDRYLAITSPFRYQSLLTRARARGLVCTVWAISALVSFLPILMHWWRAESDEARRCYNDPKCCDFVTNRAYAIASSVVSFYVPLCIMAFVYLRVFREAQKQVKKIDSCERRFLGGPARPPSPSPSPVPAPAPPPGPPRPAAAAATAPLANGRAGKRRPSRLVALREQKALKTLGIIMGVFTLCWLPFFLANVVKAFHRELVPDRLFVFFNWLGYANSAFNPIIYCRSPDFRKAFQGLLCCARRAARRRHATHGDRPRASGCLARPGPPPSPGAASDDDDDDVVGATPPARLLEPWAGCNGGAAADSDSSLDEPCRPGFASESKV
Assay Overview: Adrenergic β1 selectivity assay, [125I]-Iodocyanopindolol binding to membranes
Settings: inhibition of [125I]-Iodocyanopindolol binding, read-out: β1 bind pIC50 (converted)

As a guide, the following entries are already answered.
compound="O=C1COc2c(CCNCCN(C(=O)CCNCCc3cc(F)ccc3F)C3CCCCC3)ccc(O)c2N1 [Example 38, bis(trifluoroacetate)]" experimental_system="recombinant human adrenergic beta 1 receptors (Homo sapiens, UniProt P08588)" result="> 5.01 µM"
compound=O=C(CCOCCc1ccccc1)N(CCNCCc1ccc(O)c2[nH]c(=O)ccc12)C1CCCCC1 experimental_system="recombinant human adrenergic beta 1 receptors (Homo sapiens, UniProt P08588)" result="> 6.31 µM"

Moving on to the next compound.
Noted for O=C(CCNCCc1cc(F)cc(F)c1)N(CCNCCc1ccc(O)c2[nH]c(=O)ccc12)C1CCCCC1 [Example 15, bis(trifluoroacetate)] : its IC50 reads > 10 µM
